test: Volume of distribution at steady state in ICR mouse at 5 mg/kg, iv; type: ADME, organism-based; conditions: in vivo, read-out: Vdss
measurementType: Vd (L/kg)
Record the value in L/kg, omitting the unit from your answer.

Suppose we examine the molecule COC(=O)c1sccc1Nc1nc(Nc2cc3c(cc2OC)CCN3C(=O)CN(C)C)ncc1C(F)(F)F ; what Vd value has been reported?
5.21

###

test: Half life in ICR mouse at 5 mg/kg, iv; assay type: ADME, organism-based; conditions: in vivo
measurementType: half-life
Please state the value followed by its unit.

Recorded half-life of COC(=O)c1sccc1Nc1nc(Nc2cc3c(cc2OC)CCN3C(=O)CN(C)C)ncc1C(F)(F)F , please.
1.47 h

###

experiment: AUC (0 to infinity) in ICR mouse at 5 mg/kg, iv; assay type: ADME, organism-based; set-up: route intravenous, time infinity, dose 5 mg/kg; conditions: in vivo
measurementType: AUC(0-inf)
Answers without a unit are incomplete; give the number and then its unit.

Item under review: COC(=O)c1sccc1Nc1nc(Nc2cc3c(cc2OC)CCN3C(=O)CN(C)C)ncc1C(F)(F)F . Reported AUC(0-inf)?
776 ng·h/mL

###

assay: Metabolic stability in dog liver microsomes assessed as clearance; assay type: ADME, Canis lupus familiaris, Microsome; conditions: read-out: CLH
measurementType: CLint scaled (mL/min/kg)
Use mL/min/kg as the unit, but write only the number.

# get_value(readout='CLint scaled', item= COC(=O)c1sccc1Nc1nc(Nc2cc3c(cc2OC)CCN3C(=O)CN(C)C)ncc1C(F)(F)F )
61.5

###

test: Metabolic stability in human liver microsomes assessed as clearance; format: ADME, Microsome; settings: read-out: CLH
measurementType: CLint scaled (mL/min/kg)
Kindly provide the numeric value in mL/min/kg only, without the unit symbol.

Tell me the measured CLint scaled of COC(=O)c1sccc1Nc1nc(Nc2cc3c(cc2OC)CCN3C(=O)CN(C)C)ncc1C(F)(F)F , please.
74.3

###

test: Metabolic stability in mouse liver microsomes assessed as clearance; format: ADME, Microsome; details: read-out: CLH
measurementType: CLint scaled (mL/min/kg)
// units = mL/min/kg; emit number, no label

Which value of CLint scaled has been reported for COC(=O)c1sccc1Nc1nc(Nc2cc3c(cc2OC)CCN3C(=O)CN(C)C)ncc1C(F)(F)F in the records?
331

###

experiment: Metabolic stability in monkey liver microsomes assessed as clearance; type: ADME, Macaca mulatta, Microsome; conditions: rhesus monkey, read-out: CLH
measurementType: CLint scaled (mL/min/kg)
Use mL/min/kg as the unit, but write only the number.

Recorded CLint scaled for COC(=O)c1sccc1Nc1nc(Nc2cc3c(cc2OC)CCN3C(=O)CN(C)C)ncc1C(F)(F)F , please?
196

Reference source for all entries: ChEMBL document CHEMBL4765429
